Hey, just so you know, these numbers are from ChEMBL document CHEMBL4266047.

- TARGET_ENTITY: Prothrombin (Homo sapiens, UniProt P00734)
METRIC: Ki (nM)
Give the value in nM but do not write nM after it.

Measured Ki for this entry CC[C@H](CC[C@@H](C)[C@H]1CC[C@H]2[C@@H]3CC=C4C[C@@H](O)CC[C@]4(C)[C@H]3CC[C@]12C)C(C)C [BETA-SITOSTEROL] on Prothrombin (Homo sapiens, UniProt P00734): 267
